This listing pairs compounds with measured inhibition.
Molecular target: Hexose transporter 1 (Plasmodium falciparum)
Assay: ST_JUDE_LEISH: Cytotoxicity at 2uM final concentration against transgenic Leishmania Mexicana promastigotes LmPfHT that are glucose transport deficient and complemented with the Plasmodium falciparum hexose transporter. Activity is measured by DNA content using SYBR green in vitro
Assay type: functional
measured_endpoint: inhibition (%)

1) COc1ccc(C)c(Nc2ccnc(Nc3cccc(-c4nc5ccccc5[nH]4)c3)n2)c1; 1.79
2) COc1cc(Cc2cnc(N)nc2N)cc(OC)c1OCCCCCN1C(=O)c2ccccc2C1=O; -0.4
3) Cc1cnc(C(=O)Nc2ccc3c(c2)CCCN(Cc2c[nH]c4cnccc24)C3)cn1; 11.4
4) CC(C)N1CCN(CCCNc2c3ccccc3nc3ccccc23)CC1; 58
5) CCOC(=O)c1nc(-c2cccc(F)c2)[nH]c1N; 0.39
6) CCC(=O)c1cc(C(=O)NCCc2cccc(OC)c2)ccc1OC; 11.3
7) CC(=O)N1N=C(c2ccc(Cl)cc2)Sc2c1nc(-c1ccccc1)n2C(C)=O; 1.84
8) c1ccc(Oc2ccc(Nc3ccnc4cc(-c5ccc(CN6CCOCC6)o5)ccc34)cc2)nc1; -1.03
9) COc1ccc(CNC2Cc3ccccc3C2)cc1-c1cccc(S(=O)(=O)NCCN2CCCC2)c1; 1.69
10) NCc1ccc(CNCc2cccc(-c3cccc(-c4nc5cc(F)ccc5[nH]4)c3)c2)cc1; 9.36
